# Tested on: L. (L.) amazonensis intracellular amastigotes
# ASSAY_REMARKS: Intracellular amastigote assay, L. (L.) amazonensis in BALB/c peritoneal macrophages
# Assay type: cell-based
# CONDITION_DETAILS: Leishmania amazonensis, Macrophage, in Mus musculus; intracellular amastigotes in macrophages, 72 h
pIC50: −log10 of the molar value.
EXPERIMENTAL_ENDPOINT: pIC50

I = CCN(CC)c1ccc(C(=C2C=CC(C)C=C2)c2ccc(N(CC)CC)cc2)cc1 (centres unmarked) [TPM 6]
II = CN(C)c1ccc(C(=C2C=CC(=[N+](C)C)C=C2)c2ccc(N(C)C)cc2)cc1 [GV, gentian violet]
Prompt: In terms of reported pIC50, does I or II have the smaller number? Field: selected label. Fill in the label of the entry you choose.
Response: II
(II: 6.77, I: 7.00)

* * *

# Tested on: L. (V.) braziliensis intracellular amastigotes
# ASSAY_REMARKS: Intracellular amastigote assay, L. (V.) braziliensis in BALB/c peritoneal macrophages
# Type: cell-based, Leishmania (Viannia) braziliensis
# CONDITION_DETAILS: Leishmania braziliensis, Macrophage, in Mus musculus; intracellular amastigotes in macrophages, 72 h
EXPERIMENTAL_ENDPOINT: pIC50
By convention, pIC50 is the negative base-10 log of a molar concentration.

pIC50 recorded for this compound, CCN(CC)c1ccc(C(=C2C=CC(C)C=C2)c2ccc(N(CC)CC)cc2)cc1 (stereo not shown) , is 7.00

* * *

Parameter IC50 at 68 h: see the listing below.
# ASSAY_REMARKS: Cytotoxicity MTT assay on macrophages
# Type: cell-based
# CONDITION_DETAILS: mouse, BALB/c peritoneal macrophages, 68 h + 4 h
State just the number; it will be interpreted in µM.

MOLECULE: CN(C)c1ccc(C(=C2C=CC(=[N+](C)C)C=C2)c2ccc(N(C)C)cc2)cc1
UNITS_LABEL: µM
IC50 at 68 h: 4.03

IC50 at 68 h recorded for this molecule, CCN(CC)c1ccc(C(=C2C=CC(C)C=C2)c2ccc(N(CC)CC)cc2)cc1 (centres unmarked) , is 4.16
